Assay: binders of probe aFGF2 on microarray, primary screen, stem cell growth factor project, biochemical, small-molecule microarray, fluorescence 635/667 (AID 1067);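 note: measures binding of biotinylated aFGF2 protein to printed compounds on slides; z-score merges feature fluorescence and signal-to-noise across triplicate slides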
Details: higher = more signal
ENDPOINT: composite z-score

[[record]]
molecule = "CCCCC(=C=CC[C@@H](O)c1ccc(OCCO)cc1)C[C@@H](O)c1ccccn1"
endpoint = "composite z-score"
numeric_result = -0.0473

[[record]]
molecule = "C=C(CC1([C@@H](NP(=O)(c2ccccc2)c2ccccc2)[C@H]2C[C@@H]2CCN(C(=O)OCC)S(=O)(=O)c2ccc(C)cc2)CC1)c1ccccc1"
endpoint = "composite z-score"
numeric_result = 0.226

[[record]]
molecule = "[N-]=[N+]=NCc1ccccc1C[C@]1(C(=O)NCc2ccccc2)N=C(c2ccc(OCCCO)cc2)O[C@H]1c1ccccc1CN=[N+]=[N-]"
endpoint = "composite z-score"
numeric_result = 0.14

[[record]]
molecule = "CC(=O)NCCCC[C@@H]1NC(=O)[C@@H]2C[C@H](C(=O)NCCCCCC[N+](C)(C)C)[C@H](c3ccc(O)cc3)N2C1=O"
endpoint = "composite z-score"
numeric_result = -0.224

[[record]]
molecule = "COCCOC(=O)N1C(=O)[C@@]2(c3cc(C#CC4(O)CCCCCC4)ccc31)[C@H](C(=O)N1CCc3cc(OC)c(OC)cc3C1)[C@H]1C(=O)O[C@H](c3ccccc3)[C@H](c3ccccc3)N1[C@@H]2c1ccc(O)cc1"
endpoint = "composite z-score"
numeric_result = -0.01

[[record]]
molecule = "COc1ccc([Si](C)(C)[C@H]2[C@H](CCO)O[C@@]3(C(=O)N(Cc4ccc(N5CCOC5=O)cc4)c4ccccc43)[C@@H]2C)cc1"
endpoint = "composite z-score"
numeric_result = -0.137

[[record]]
molecule = "CN(C)CCCCNC(=O)[C@H]1C[C@H]2C(=O)N[C@@H](Cc3ccccc3)C(=O)N2[C@H]1c1cccc(OCCO)c1"
endpoint = "composite z-score"
numeric_result = -0.158

[[record]]
molecule = "COCCCNC(=O)[C@@]1(Sc2ccc(C)cc2)CC(=O)N(C2CCCCC2)[C@@H]1c1ccc(CO)cc1I"
endpoint = "composite z-score"
numeric_result = 0.0442

[[record]]
molecule = "CCOC(=O)C1=CC[C@@H](c2ccccc2)N(S(=O)(=O)c2ccc(C)cc2)[C@H]1C#N"
endpoint = "composite z-score"
numeric_result = -0.0381

[[record]]
molecule = "CC(=O)n1cc(C(O)C2C=CC3C(=O)N(c4ccccc4)C(=O)C3N2Nc2ccccc2F)c2ccccc21 (stereo not given)"
endpoint = "composite z-score"
numeric_result = -0.0757

[[record]]
molecule = "CCc1cccc(NC(=O)O[C@H]2[C@H](OC(=O)Nc3ccc4c(c3)OCO4)[C@H](OC(=O)Nc3ccc4c(c3)OCO4)[C@@H](OC)O[C@@H]2CO)c1"
endpoint = "composite z-score"
numeric_result = -0.0158

[[record]]
molecule = "O=C1C2C=CC(C(O)c3ccc([N+](=O)[O-])cc3)N(Nc3ccccc3)C2C(=O)N1c1ccccc1 (stereo not given)"
endpoint = "composite z-score"
numeric_result = 0.0589

[[record]]
molecule = "CN(C)CCCNC(=O)[C@@H]1c2ccccc2C(=O)N(C2Cc3ccccc3C2)[C@H]1c1ccc(CO)cc1"
endpoint = "composite z-score"
numeric_result = -0.0566

[[record]]
molecule = "CC[C@H](C)C(=O)O[C@H]1CC[C@]2(C)C3=C(CCC2C1(C)C)[C@]1(C)CC[C@H]([C@H](C)CCCC(C)C)[C@@]1(C)CC3 (stereo not given in full)"
endpoint = "composite z-score"
numeric_result = -0.0691

[[record]]
molecule = "CN(C)C(=O)[C@]1(Cc2ccccc2)N=C(c2ccc(OCCCO)cc2)O[C@@H]1c1ccccc1"
endpoint = "composite z-score"
numeric_result = 0.0376


###

Tested on: XIP peptide (Xip251-270) binding
Assay: small-molecule binders of XIP peptide, primary screen, biochemical, small-molecule microarray, fluorescence 635/667 nm, 0.1 µg/mL protein (AID 1182)
Conditions: fluorescent protein binding, 635 nm, higher = more signal, called active from +8 up or from −8 down
Measured composite z-score, listed per entry for reference.
ENDPOINT: composite z-score

[[record]]
molecule = "CC(C)C[C@@H]1NC(=O)[C@H]2C[C@@H](C(=O)NCCCCCCNC(=O)CS)[C@@H](c3ccc(O)cc3)N2C1=O"
tgt = "XIP peptide (Xip251-270) binding"
endpoint = "composite z-score"
numeric_result = 3.87

[[record]]
molecule = "COCC(=C=CC[C@@H](O)c1ccc(OCCO)cc1)C[C@@H](O)COCc1ccccc1"
tgt = "XIP peptide (Xip251-270) binding"
endpoint = "composite z-score"
numeric_result = 0.705

[[record]]
molecule = "CC(C)C[C@@H]1NC(=O)[C@@]23C(=O)N[C@@H](Cc4ccccc4)C2[C@H](C)[C@@]2(C)O[C@H]2C3/C=C/C/C=C\\CNC(=O)[C@@H](CC(C)C)NC1=O (stereo partly specified)"
tgt = "XIP peptide (Xip251-270) binding"
endpoint = "composite z-score"
numeric_result = 0.549

[[record]]
molecule = "COCCOC(=O)N1C(=O)[C@@]2(c3cc(C#CCC(C(=O)OC)C(=O)OC)ccc31)[C@H](C(=O)N1CCCCCCC1)[C@H]1C(=O)O[C@H](c3ccccc3)[C@H](c3ccccc3)N1[C@@H]2c1ccccc1OCCO"
tgt = "XIP peptide (Xip251-270) binding"
endpoint = "composite z-score"
numeric_result = 2.48

[[record]]
molecule = "COCCOC(=O)N1C(=O)[C@@]2(c3cc(C#CC4(O)CCCCCC4)ccc31)[C@H](c1ccc(OCCO)cc1)N1[C@H](c3ccccc3)[C@H](c3ccccc3)OC(=O)[C@H]1[C@@H]2C(=O)N1CCCCCCC1"
tgt = "XIP peptide (Xip251-270) binding"
endpoint = "composite z-score"
numeric_result = 0.662

[[record]]
molecule = "O=C1O[C@H](c2ccccc2)[C@H](c2ccccc2)N2[C@H]1[C@@H](C(=O)NC[C@H](O)c1ccccc1)[C@]1(C(=O)Nc3ccc(C#CCCO)cc31)[C@H]2c1ccccc1OCCO"
tgt = "XIP peptide (Xip251-270) binding"
endpoint = "composite z-score"
numeric_result = 0.419


###

Measured composite z-score, listed per entry for reference.
Target: Fibroblast growth factor 2 (Homo sapiens)
Assay: FGF2 binders on small-molecule microarrays, primary screen, biochemical, small-molecule microarray, 635/667 nm fluorescence (AID 1133)
Conditions: small-molecule microarray binding, FGF2, fluorescence 635/667; higher = more signal
ENDPOINT: composite z-score

[[record]]
molecule = "C=CCC(OC(C)=O)[C@@H]1[C@@H](N(Cc2cccc3ccccc23)C(=O)c2ccc(-c3ccccc3)cc2)c2cc(OCCCO)ccc2N1C(=O)c1ccc2ccccc2n1 (some centres not stated)"
endpoint = "composite z-score"
result = -0.0329

[[record]]
molecule = "COC(=O)C(CC#Cc1ccc2c(c1)[C@]1(C(=O)N2)[C@H](c2ccc(O)cc2)N2[C@H](c3ccccc3)[C@H](c3ccccc3)OC(=O)[C@H]2[C@@H]1C(=O)N1CCc2cc(OC)c(OC)cc2C1)C(=O)OC"
endpoint = "composite z-score"
result = 1.17

[[record]]
molecule = "C#CCN(C/C=C/c1ccccc1)[C@H](CO[Si](C)(C)C(C)(C)C)c1ccccc1"
endpoint = "composite z-score"
result = -0.187

[[record]]
molecule = "CC(C)C[C@@H]1NC(=O)[C@H]2C[C@@H](C(=O)NCCCCCCNC(=O)CS)[C@@H](c3ccc(O)cc3)N2C1=O"
endpoint = "composite z-score"
result = 1.78

[[record]]
molecule = "COC(=O)[C@]1(CO)N=C(c2ccc(OCCCO)cc2)O[C@@H]1c1ccccc1CN=[N+]=[N-]"
endpoint = "composite z-score"
result = 0.435

[[record]]
molecule = "CC(C)CNC(=O)[C@@H]1c2ccccc2C(=O)N(C(C)C)[C@H]1c1ccc(CO)cc1"
endpoint = "composite z-score"
result = 0.427

[[record]]
molecule = "COCC(=C=CC[C@@H](O)c1ccc(OCCO)cc1)C[C@@H](O)COCc1ccccc1"
endpoint = "composite z-score"
result = 1.41


###

Test: HepG2 cell viability effects, profiling panel, calcein-AM fluorescence, 48 h, basal (AID 1164)
Conditions: higher = more signal
ENDPOINT: z-score

[[record]]
molecule = "CCC[C@@H]1C=C(C(=O)OCC)[C@H](c2ccccc2)N1S(=O)(=O)c1ccc(C)cc1"
numeric_result = -2.37

[[record]]
molecule = "O=C1O[C@H](c2ccccc2)[C@H](c2ccccc2)N2[C@H]1[C@@H](C(=O)N1CCN(c3ncccn3)CC1)[C@]1(C(=O)Nc3ccccc31)[C@H]2c1ccc(O)cc1"
numeric_result = 0.406

[[record]]
molecule = "COCCOC(=O)N1C(=O)[C@@]2(c3cc(C#CCCO)ccc31)[C@H](c1ccccc1OCCO)N1[C@H](c3ccccc3)[C@H](c3ccccc3)OC(=O)[C@H]1[C@@H]2C(=O)N1CCc2cc(OC)c(OC)cc2C1"
numeric_result = 1.37

[[record]]
molecule = "COc1ccc(C#Cc2ccc3c(c2)[C@]2(C(=O)N3)[C@H](C(=O)Nc3nc4ccccc4s3)[C@H]3C(=O)O[C@H](c4ccccc4)[C@H](c4ccccc4)N3[C@@H]2c2ccc(OCCO)cc2)cc1"
numeric_result = 0.044

[[record]]
molecule = "CN1C(=O)[C@]2(CCC(=O)OC(C)(C)C)N=C(c3ccc(OCCCO)cc3)O[C@@H]2c2ccccc21"
numeric_result = -0.54

[[record]]
molecule = "CC(C)CNC(=O)[C@@H]1c2ccccc2C(=O)N(C2Cc3ccccc3C2)[C@H]1c1ccc(CO)cc1"
numeric_result = 1.74

[[record]]
molecule = "NC(=O)N1C(=O)C2C(C1=O)C1C=C(CCCO)C2C(c2ccc(CN3CCCC3)cc2)N1Cc1cccc(OC(F)(F)F)c1 (stereo not drawn)"
numeric_result = -0.215

[[record]]
molecule = "[N-]=[N+]=Nc1ccccc1[C@@H]1OC(c2ccc(OCCCO)cc2)=N[C@]1(Cc1ccccc1)C(N)=O"
numeric_result = 0.765


Origin of the recorded values: PubChem BioAssay
